assayProtocol: NCI Yeast Anticancer Drug Screen. Data for the mlh1 rad18 strain (AID 175)
conditionLabel: S. cerevisiae mlh1 rad18 strain growth inhibition; at 50.0 µM (retest, dose inferred, filed as 5.0); hits give high values
Compounds without any hit were thinned out: in the full panel of roughly 79,000, 15% have a hit. The source made the active and inactive calls. Rule as the data show it: active = growth inhibition above about 70%; inactive = the rest.
metric: growth inhibition

Take a look at these entries with their results.
molecule: Oc1cc(Br)ccc1/C=N/Nc1ccccn1
growth inhibition: 27% (inactive)
//
molecule: COc1ccc2c(c1)n([O-])c1cc(C#N)ccc1[n+]2=O
growth inhibition: 96% (active)
//
molecule: CC(C)Cn1cnc2c(SCc3ccccc3[N+](=O)[O-])nc(N)nc21
growth inhibition: 2% (inactive)
//
molecule: O=C(CCl)N1CCN(C(c2ccccc2)c2ccccc2)CC1
growth inhibition: 97% (active)
//
molecule: CC1(c2ccc(F)cc2)OC(=O)c2c1ccc1ccccc21 (stereo unspecified)
growth inhibition: 84% (active)
//
molecule: C[N+]1(c2ccccc2)C=C(c2ccccc2)SC1=S (stereo unspecified)
growth inhibition: 75% (active)
//
molecule: CCOc1cc2c(OCc3ccccc3)cc3c4cc(OC)c(OC)cc4c[n+](C)c3c2cc1OC
growth inhibition: 99% (active)
//
molecule: c1cnc2ccc3c4cccnc4ccc3c2c1
growth inhibition: 89% (active)
//
molecule: Ic1ccc2c(c1)N(c1ccccc1)c1cc(N=c3ccc4nc5ccc(I)cc5n(-c5ccccc5)c-4c3)ccc1N2
growth inhibition: 18% (inactive)
//
molecule: CCCCCCCCCCCCOCC[N+](CCO)(CCO)Cc1ccccc1
growth inhibition: 99% (active)

Switching to the query record.
Which growth inhibition is reported for this molecule? O=C(O)c1cc2oc(-c3ccccc3)cc2[nH]1 80% (active)

---

assayProtocol: NCI Yeast Anticancer Drug Screen. Data for the sgs1 mgt1 strain (AID 161);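 also: 0% = growth of cultures given vehicle only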
conditionLabel: S. cerevisiae sgs1 mgt1 strain, at 5.0 µM (retest, dose inferred, filed as 0.5), hits give high values
Protocol: Growth inhibition of yeast strains with defined genetic alterations is measured as a screen for potential anti-cancer activity. Selected strains with alterations in DNA damage repair or cell cycle control were exposed to compounds and growth inhibition was measured relative to vehicle treated controls. The strain used in this assay is sgs1 mgt1
Compounds without any hit were thinned out: in the full panel of roughly 79,000, 15% have a hit. The source made the active and inactive calls. No stated cut-off is given here; in the data, active means growth inhibition above about 70%; inactive means the rest.
metric: growth inhibition

Give measured growth inhibition for every item shown.
1. Cc1cccc(N2C(=O)c3ccccc3C2(c2ccccc2)N2CCCCC2)c1 (stereo not drawn)
2. O=C(CC(=O)c1cc(Cl)ccc1O)c1cccnc1
3. Nc1ncnc2c1ncn2C1OCC(OCc2ccccc2)C(OCc2ccccc2)C1OCc1ccccc1 (stereo not drawn)

1: 4% (inactive); 2: 1% (inactive); 3: 13% (inactive)

---

assayProtocol: NCI Yeast Anticancer Drug Screen. Data for the cln2 rad14 strain (AID 165);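 also: 0% = growth equal to vehicle treated cultures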
conditionLabel: S. cerevisiae cln2 rad14 strain, at 5.0 µM (retest, dose inferred, filed as 0.5), hits give high values
Method: Growth inhibition of yeast strains with defined genetic alterations is measured as a screen for potential anti-cancer activity. Selected strains with alterations in DNA damage repair or cell cycle control were exposed to compounds and growth inhibition was measured relative to vehicle treated controls. The strain used in this assay is cln2 rad14
The panel holds about 79,000 compounds, 15% with a hit somewhere; the sample as a whole holds those more often.
What growth inhibition was measured for each of the following?
Numbers only, in %.

molecule: O=C1CSC(=Nc2ccc(F)cc2F)N1Cc1cccs1
unitTag: %
quantitativeReadout: 25

molecule: CC(=O)/C(=C\c1c(Cl)cccc1Cl)C(=O)CCN(C)C
unitTag: %
quantitativeReadout: 25

molecule: O=P(Nc1ccccc1)(OCc1ccccc1)OCc1ccccc1
unitTag: %
quantitativeReadout: 13

molecule: COc1ccc(Cc2ccccc2C(=O)O)c2ccccc12
unitTag: %
quantitativeReadout: 95

molecule: CSCCOC(=O)c1cc(NC(=S)c2ccoc2C)ccc1Cl
unitTag: %
quantitativeReadout: 14

molecule: Clc1ncccc1-n1cccc1/C=N\N=C/c1cccn1-c1cccnc1Cl
unitTag: %
quantitativeReadout: 4

molecule: OC(CBr)c1cc(-c2ccccc2)nc2ccccc12 (configuration not stated)
unitTag: %
quantitativeReadout: -17

molecule: NC1=NCN(C2OC(COCc3ccccc3)C(OCc3ccccc3)C2OCc2ccccc2)C(=O)N1 (configuration not stated)
unitTag: %
quantitativeReadout: -7

molecule: CC(=O)N(C1=C(Cl)C(=O)c2ccccc2C1=O)c1ccc(C)cc1
unitTag: %
quantitativeReadout: 100

molecule: N#CC1Sc2ccccc2N1C(=O)c1ccccc1 (configuration not stated)
unitTag: %
quantitativeReadout: -12

List growth inhibition for every entry below, keeping the order given.
1. Cc1cccc2c(Nc3ccc(NS(C)(=O)=O)cc3)c3ccccc3nc12
2. CC1=C(C(=O)OCCO[N+](=O)[O-])C(c2cccc([N+](=O)[O-])c2)C(C(=O)OC(C)C)=C(C)N1 (configuration not stated)
3. COc1ccc2nc3cc(Cl)ccc3c(NCCC[N+](C)(C)CCCCCCCCCC[N+](C)(C)CCCNc3c4ccc(Cl)cc4nc4ccc(OC)cc34)c2c1
4. CCCCN(CCCC)C(=O)c1ccc(Cl)cc1Cl
5. CCC(C)CNCCCCCNc1cc(OC)cc2cccnc12 (configuration not stated)

-7
-3
24
11
47

Give growth inhibition for each listed item.
1. Cc1ccc(S(=O)(=O)Oc2ccc(C(C)(C)C)cc2Cl)cc1
2. CN(C)CCCCCNc1c2ccccc2nc2cccc([N+](=O)[O-])c12
3. CCCCCCCCCCCCCC/C(=C/OCC[N+](C)(C)C)OC(C)=O (tested in a mixture with another compound)
4. Cc1nn(C(=O)c2ccccc2O)c2c1C(c1ccc3ccccc3c1O)SC(N)=N2 (configuration not stated)
5. COc1ccc(/C=C\Cc2cc3c(cc2OCCO)OCO3)cc1

[-3, 37, 99, -9, 1]

Could you report growth inhibition for every entry in the following list?
1. COc1cc(C2CC(=O)c3ccccc3O2)ccc1O (configuration not stated)
2. C/C(=N/NC(=S)N(C)C)c1ccccc1O

[-16, 18]
